Listing of entries alongside the reported melting point.

Examples with their reported melting point follow.
Cc1cc(Oc2ccc(NC(=O)Oc3ccc(N(CCCl)CCCl)cc3)cc2)c2cc3c(cc2n1)OCO3 : 183 to 184 °C
Cc1cc(NNC(=O)Nc2ccc(N(CCCl)CCCl)cc2)c2ccccc2n1 : 235 to 236 °C
Cc1cc(Oc2ccc(NC(=O)Nc3ccc(N(CCCl)CCCl)cc3)cc2)c2cc3c(cc2n1)OCO3 : 217 to 218 °C

Read the next record carefully.
State the recorded melting point for this entry: COc1ccc2nc(C)cc(NNC(=O)Nc3ccc(N(CCCl)CCCl)cc3)c2c1 224 to 225 °C
